- target_desc: REV-ERBα LBD (human; residues 281-614 Δ324-422) (Homo sapiens, UniProt P20393, DEL324-422)
- Construct: 6×Histag-REV-ERBα LBD (human; residues 281-614 Δ324-422); made in house; host or cells: Escherichia coli
- Sequence (P20393 with tags, fused parts or gaps DEL324-422): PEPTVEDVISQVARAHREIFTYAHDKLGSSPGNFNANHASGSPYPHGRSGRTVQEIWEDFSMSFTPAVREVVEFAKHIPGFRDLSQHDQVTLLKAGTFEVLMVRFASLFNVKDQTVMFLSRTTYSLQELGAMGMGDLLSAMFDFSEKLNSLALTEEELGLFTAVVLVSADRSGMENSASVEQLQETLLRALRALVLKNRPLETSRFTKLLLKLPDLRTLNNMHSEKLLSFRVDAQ
- Sequence (Q9Y618 2335-2356 partner limits assumed): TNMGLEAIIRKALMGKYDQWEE
- experimental_protocol: TR-FRET corepressor interaction assay (REV-ERBα LBD, FITC-SMRT peptide)
- Assay type: biochemical
- condition_description: Table 2, read-out: REVERBα agonism (EC50 class, FRET assay)
reported_endpoint: EC50

Find the measured EC50 of "CC(C)(C)Cn1cc([C@H](NS(=O)(=O)C2CC2)C(F)(F)F)c2cc(F)c(-c3cccc(F)c3C(F)(F)F)cc21" and report it.
< 500 nM

Find the measured EC50 of "CC(C)Cn1cc(CCNS(=O)(=O)N(C)C)c2ccc(-c3cc(F)cc(F)c3)cc21" and report it.
500 to 3000 nM

Find the measured EC50 of "CC(C)(C)Cn1cc([C@H](NS(=O)(=O)C2CC2)C(F)(F)F)c2cc(F)c(-c3c(F)cccc3C(F)(F)F)cc21" and report it.
< 500 nM

Find the measured EC50 of "CC(C)Cn1cc(CCNS(=O)(=O)N(C)C)c2ccc(-n3cccn3)cc21" and report it.
500 to 3000 nM

Find the measured EC50 of "CC(C)Cn1cc(CNS(=O)(=O)C(C)C)c2cc(F)c(-c3ccncc3Cl)cc21" and report it.
< 500 nM

Find the measured EC50 of "CC(=O)N1CCC(c2ccc3c(CCNS(=O)(=O)N(C)C)cn(CC(C)C)c3c2)CC1" and report it.
> 3000 nM

Find the measured EC50 of "CC(C)(C)Cn1cc([C@H](NS(=O)(=O)C2CC2)C(F)(F)F)c2ccc(-c3ccccc3C(F)(F)F)cc21" and report it.
< 500 nM

Find the measured EC50 of "CN(C)S(=O)(=O)NCCc1cn(Cc2cccc(Cl)c2)c2cc(-c3ccncc3)ccc12" and report it.
< 500 nM

Find the measured EC50 of "CC(C)C(=O)n1cc(CNS(=O)(=O)N(C)C)c2ccc(-c3ccccc3C(F)(F)F)cc21" and report it.
< 500 nM

Find the measured EC50 of "CC(C)(C)Cn1cc([C@H](NS(=O)(=O)C2CCC2)C(F)(F)F)c2ccc(C(F)(F)F)cc21" and report it.
> 3000 nM

Find the measured EC50 of "CC(C)Cn1cc(CCNS(=O)(=O)N(C)C)c2ccc(-c3ccnc(Cl)c3)cc21" and report it.
< 500 nM

Find the measured EC50 of "COc1ccccc1-c1ccc2c(c1)c(CC(C)(C)C)cn2CCNS(=O)(=O)C1CC1" and report it.
< 500 nM

Find the measured EC50 of "CC(C)(C)Cc1cn(CCNS(=O)(=O)C2CC2)c2ccc(-c3ccc4cc(O)ccc4c3)cc12" and report it.
500 to 3000 nM

Find the measured EC50 of "CC(C)Cn1cc(CCN(C)S(=O)(=O)N(C)C)c2ccc(C(F)(F)F)cc21" and report it.
500 to 3000 nM

Find the measured EC50 of "CC(C)Cc1cn(CCS(=O)(=O)C(C)(C)C)c2ccc(Br)cc12" and report it.
500 to 3000 nM

Find the measured EC50 of "CC(C)Cn1cc([C@H]2C[C@H]2NS(=O)(=O)C(C)C)c2ccc(Br)cc21" and report it.
500 to 3000 nM

----------
- target_desc: REV-ERBα LBD (human; residues 281-614 Δ324-422) (Homo sapiens, UniProt P20393, DEL324-422)
- Construct: 6×Histag-REV-ERBα LBD (human; residues 281-614 Δ324-422); made in house; host or cells: Escherichia coli
- experimental_protocol: TR-FRET corepressor interaction assay (REV-ERBα LBD, FITC-SMRT peptide)
- Type: biochemical
- condition_description: Table 2, read-out: REVERBα agonism (EC50 class, FRET assay)
pEC50: −log10 of the molar value.
Please respond with reported pEC50 for every item in the list.

Find the measured pEC50 of CC(C)Cn1cc(CCNS(=O)(=O)N(C)C)c2ccc(-c3ccccn3)cc21 [Compound 31] and report it.
5.52 to 6.30

Find the measured pEC50 of CC(C)(C)Cn1cc(CCNS(=O)(=O)C2CC2)c2cc(F)c(-c3ccncc3Cl)cc21 [Compound 288] and report it.
> 6.30

Find the measured pEC50 of CC(C)Cn1cc(C2CCCN(S(=O)(=O)N(C)C)C2)c2ccc(-c3ccccc3)cc21 (centres unmarked) [Example 61] and report it.
5.52 to 6.30

Find the measured pEC50 of CCC(=O)n1cc(CNS(=O)(=O)N(C)C)c2ccc(-c3ccncc3)cc21 [Example 187] and report it.
< 5.52

Find the measured pEC50 of CC(C)(C)Cn1cc([C@H](NS(=O)(=O)C2(C)CC2)C(F)(F)F)c2cc(F)c(-c3ccccc3C(F)(F)F)cc21 [Example 375] and report it.
> 6.30

Find the measured pEC50 of Cc1ccc(-c2ccc3c(c2)c(CC(C)(C)C)cn3CCNS(=O)(=O)C2CC2)c(C(F)(F)F)c1 [Example 402] and report it.
> 6.30

Find the measured pEC50 of CC(C)Cn1cc(C(C)N[S+]([O-])C(C)(C)C)c2ccc(-c3ccccc3C(F)(F)F)cc21 (centres unmarked) [Compound 291] and report it.
< 5.52

Find the measured pEC50 of CC(C)Cn1cc(CCNS(=O)(=O)N(C)C)c2ccc(N(C)C)cc21 [Example 113] and report it.
5.52 to 6.30

----------
- target_desc: REV-ERBα LBD (human; residues 281-614 Δ324-422) (Homo sapiens, UniProt P20393, DEL324-422)
- Construct: 6×Histag-REV-ERBα LBD (human; residues 281-614 Δ324-422); made in house; host or cells: Escherichia coli
- experimental_protocol: TR-FRET corepressor interaction assay (REV-ERBα LBD, FITC-SMRT peptide)
- Type: biochemical
- condition_description: Table 2, read-out: REVERBα agonism (EC50 class, FRET assay)
reported_endpoint: EC50

Find the measured EC50 of "CN(C)S(=O)(=O)NCCc1cn(C)c2cc(-c3ccncc3)ccc12" and report it.
500 to 3000 nM

Find the measured EC50 of "CC(C)c1ccc2c([C@H](NS(=O)(=O)N(C)C)C(F)(F)F)cn(CC(C)(C)C)c2c1" and report it.
< 500 nM

Find the measured EC50 of "Cc1c(-c2ccccc2C(F)(F)F)ccc2c([C@H](NS(=O)(=O)C3CC3)C(F)(F)F)cn(CC(C)(C)C)c12" and report it.
< 500 nM

Find the measured EC50 of CC(C)Cn1cc(C(C)CNS(=O)(=O)C(C)C)c2ccc(-c3ccccc3)cc21 (centres unmarked) and report it.
> 3000 nM

Find the measured EC50 of "CC(C)Cn1cc(CCS(=O)(=O)C(C)C)c2ccc(Br)cc21" and report it.
500 to 3000 nM

Find the measured EC50 of "CC(C)Cn1cc(CCNS(=O)(=O)N(C)C)c2ccc(F)cc21" and report it.
500 to 3000 nM

Find the measured EC50 of "CC(C)(C)Cn1cc(CNS(=O)(=O)C2CC2)c2cc(F)c(-c3ccncc3Cl)cc21" and report it.
< 500 nM

Find the measured EC50 of "CCNc1ccc2c(CCNS(=O)(=O)N(C)C)cn(CC(C)C)c2c1" and report it.
> 3000 nM

Find the measured EC50 of "CN(C)S(=O)(=O)NCCc1cn(CCOC(C)(C)C)c2cc(-c3ccncc3)ccc12" and report it.
500 to 3000 nM

Find the measured EC50 of "CC(C)S(=O)(=O)NCCc1cn(CCC(C)(C)C)c2cc(-c3ccncc3)ccc12" and report it.
< 500 nM

Find the measured EC50 of "CC(C)Cn1cc([C@H]2C[C@H]2NS(=O)(=O)C(C)C)c2ccc(-c3ccccc3)cc21" and report it.
> 3000 nM

----------
- target_desc: REV-ERBα LBD (human; residues 281-614 Δ324-422) (Homo sapiens, UniProt P20393, DEL324-422)
- Construct: 6×Histag-REV-ERBα LBD (human; residues 281-614 Δ324-422); made in house; host or cells: Escherichia coli
- experimental_protocol: TR-FRET corepressor interaction assay (REV-ERBα LBD, FITC-SMRT peptide)
- Type: biochemical
- condition_description: Table 2, read-out: REVERBα agonism (EC50 class, FRET assay)
reported_endpoint: EC50

Find the measured EC50 of CC(C)Cn1cc(CCNS(=O)(=O)N(C)C)c2ccc(C3CCNCC3)cc21 [Compound 102] and report it.
> 3000 nM

Find the measured EC50 of CC(C)Cn1cc([C@H](NS(=O)(=O)C2CC2)C(F)(F)F)c2ccc(-c3ccncc3)cc21 [Example 307] and report it.
< 500 nM

Find the measured EC50 of CC(NS(=O)(=O)C1CC1)c1cn(CC(C)(C)C)c2cc(-c3ccccc3C(F)(F)F)ccc12 (centres unmarked) [Example 420] and report it.
< 500 nM

Find the measured EC50 of CC(C)c1cc2c(cc1F)c([C@H](NS(=O)(=O)C1CC1)C(F)(F)F)cn2CC(C)(C)C [Example 336] and report it.
500 to 3000 nM

Find the measured EC50 of CN(C)S(=O)(=O)NCCc1cn(CC(F)(F)F)c2cc(Br)ccc12 [Example 158] and report it.
500 to 3000 nM

Find the measured EC50 of CC(C)Cn1cc([C@H](NS(=O)(=O)C2CC2)C(F)(F)F)c2ccc(-c3ccnn3C)cc21 [Example 370] and report it.
< 500 nM

Find the measured EC50 of CC(C)Cn1cc(CNS(=O)(=O)C(C)C)c2cc(F)c(-c3ccccc3C(F)(F)F)cc21 [Compound 269] and report it.
< 500 nM

Find the measured EC50 of CN(C)S(=O)(=O)NCCn1cc(CC(C)(C)C)c2cc(-c3ccncc3)ccc21 [Example 189] and report it.
< 500 nM

Find the measured EC50 of CC(C)(C)Cn1cc([C@H](NS(=O)(=O)C2CC2)C(F)(F)F)c2cc(F)c(C3CC3)cc21 [Example 327] and report it.
< 500 nM

Find the measured EC50 of CC(C)Cn1cc(CCNS(=O)(=O)N(C)C)c2ccc(Nc3ccnn3C)cc21 [Compound 69] and report it.
> 3000 nM

Find the measured EC50 of CC(C)Cn1cc([C@H]2C[C@H]2NS(=O)(=O)C(C)C)c2ccc(-c3ccncc3)cc21 [Compound 258] and report it.
< 500 nM

The origin of these recorded values is patent US20230339886A1.
